Target: GPR139 (Homo sapiens, UniProt Q6DWJ6)
Construct: host or cells: CHO-k1
Assay: Phospho-ERK1/2 HTRF assay in CHO-GPR139 cells
Format: cell-based
Conditions: ERK phosphorylation, CHO-GPR139 cells; read-out: pEC50 ± SEM (converted)
Method: All compounds were tested on a CHO-k1 cell line stably expressing GPR139 (CHO-GPR139)[11] kindly provided by H. Lundbeck A/S, Denmark. GPR139-specific responses were assessed using a CHO-k1 cell line stably expressing the muscarinic acetylcholine receptor M1 (CHO-M1) (The Missouri S&T cDNA Resource Center, # CEM100TN00). Phospho-ERK measurements were made using the Advanced Phospho-ERK1/2 (Thr202/Tyr204) HTRF kit by Cisbio (Codolet, France). […]
We begin with a simple list: items and their reported EC50.
Provide only the numeric value, understood in nM.

Would you please look over these solved cases?
[
  {
    "molecule": "COc1cc(OC)cc(C(=O)NNC(=O)Nc2cccc3ccccc23)c1 [1a, reference compound]",
    "targetOfAssay": "GPR139 (Homo sapiens, UniProt Q6DWJ6)",
    "measurementUnits": "nM",
    "measValue": 28.2
  },
  {
    "molecule": "O=C(O)C1CC=CCC1c1nnc(CSc2ccc(Cl)cc2)o1 (stereo not shown) [AC4]",
    "targetOfAssay": "GPR139 (Homo sapiens, UniProt Q6DWJ6)",
    "measurementUnits": "nM",
    "measValue": 178
  },
  {
    "molecule": "N[C@@H](Cc1c[nH]c2ccccc12)C(=O)O [L-tryptophan, reference compound]",
    "targetOfAssay": "GPR139 (Homo sapiens, UniProt Q6DWJ6)",
    "measurementUnits": "nM",
    "measValue": 759000
  }
]

Query: Provide only the value of recorded EC50 for C[C@H](NC(=O)CNC(=O)c1cccc(Cl)c1)c1ccccc1 [7c, reference compound]
Reply: 12.9

----------
Attribute: Emax ± S.E.M.
Target: GPR139 (Homo sapiens, UniProt Q6DWJ6)
Construct: host or cells: CHO-k1
Test: Fluo-4 calcium mobilization assay, agonist mode, concentration-response curves in CHO-GPR139 cells
Assay type: cell-based
Conditions: CHO-GPR139 cells; normalized to buffer (0%) and 8 μM 1a (100%)
// note: answer is a bare numeric in %

Known Emax ± S.E.M. results, listed for orientation:
[
  {
    "compound": "CC1(c2ccc3c(c2)OCCO3)NC(=O)N(CC(=O)c2ccc[nH]2)C1=O (stereo not drawn)",
    "Emax ± S.E.M., %": 99
  },
  {
    "compound": "CC1(c2ccc3c(c2)OCO3)NC(=O)N(CC(=O)N2CCc3ccccc32)C1=O (stereo not drawn)",
    "Emax ± S.E.M., %": 103
  },
  {
    "compound": "C=CCN(CC=C)C(=O)CN1C(=O)NC(C)(c2ccc3c(c2)OCCO3)C1=O (stereo not drawn)",
    "Emax ± S.E.M., %": 106
  },
  {
    "compound": "CC(C)OCCCNC(=O)NC(C)c1ccccc1Cl (stereo not drawn)",
    "Emax ± S.E.M., %": 102
  },
  {
    "compound": "Cc1ccc(C(C)NC(=O)NCC(=O)NCC2CC2)cc1F (stereo not drawn)",
    "Emax ± S.E.M., %": 103
  }
]

Query: // fetch Emax ± S.E.M. given entry C=CCN(CC=C)C(=O)CN1C(=O)NC(C)(c2cccc3ccccc23)C1=O (stereo not drawn)
Reply: 95

Query: Provide one value: measured Emax ± S.E.M. of CC1(c2ccc3c(c2)OCCO3)NC(=O)N(CC(=O)c2c[nH]c3ccccc23)C1=O (stereo not drawn)
Reply: 111

Query: Answer with the recorded Emax ± S.E.M. for the compound listed here: CC1Cc2ccccc2N1C(=O)CN1C(=O)NC(C)(c2ccc3c(c2)OCCO3)C1=O (stereo not drawn)
Reply: 134

Query: Read off the recorded Emax ± S.E.M. for CC1(c2ccc3c(c2)OCCO3)NC(=O)N(CC(=O)N2CCc3ccccc3C2)C1=O (stereo not drawn)
Reply: 107

Query: Give recorded Emax ± S.E.M.. CC(=O)c1c(C)[nH]c(C(=O)CN2C(=O)NC(C)(c3ccc4c(c3)OCCO4)C2=O)c1C (stereo not drawn)
Reply: 104

Query: Kindly indicate its recorded Emax ± S.E.M.. Item: CC(C)OCCCNC(=O)NC(C)c1cccc(Cl)c1 (stereo not drawn)
Reply: 97

Query: Give reported Emax ± S.E.M. value for COc1ccc(C(=O)CN2C(=O)NC(C)(c3ccc4c(c3)OCO4)C2=O)cc1OC (stereo not drawn)
Reply: 100

Query: Please look at this compound and report its Emax ± S.E.M.: COc1cc(OC)cc(C(=O)NN2C(=O)NC(C)(c3ccccc3)C2=O)c1 (stereo not drawn)
Reply: 106

Query: For the compound CC(C)COCCCNC(=O)NC(C)c1ccc(Cl)cc1Cl (stereo not drawn) , give its reported Emax ± S.E.M..
Reply: 110

Query: Using known records, supply Emax ± S.E.M. for CC1(c2cccc3ccccc23)NC(=O)N(CC(=O)c2ccc(CCNS(C)(=O)=O)s2)C1=O (stereo not drawn)
Reply: 88

----------
Each entry below carries its reported Emax.
Target: GPR139 (Homo sapiens, UniProt Q6DWJ6)
Construct: host or cells: CHO-k1
Experiment: Phospho-ERK1/2 HTRF assay in CHO-GPR139 cells
Assay type: cell-based
Settings: ERK phosphorylation; expressed relative to FBS positive control
Please state the figure in %; there is no need to write the unit.

Query: Check GPR139 (Homo sapiens, UniProt Q6DWJ6) data and give Emax for O=C(O)C1CC=CCC1c1nnc(CSc2ccc(Cl)cc2)o1 (stereo not shown) .
Reply: 77.2

----------
Biological target: GPR139 (Homo sapiens, UniProt Q6DWJ6)
Construct: host or cells: CHO-k1
Experiment: Phospho-ERK1/2 HTRF assay in CHO-GPR139 cells
Type: cell-based
Details: ERK phosphorylation, CHO-GPR139 cells, 5 minute stimulation; read-out: EC50
readoutName: EC50 (nM)
Respond numerically; units are nM and should not be typed.

Answered examples (3):
[
  {
    "molecule": "CC(C)COCCCNC(=O)NC(C)c1ccc(Cl)cc1Cl (centres unmarked)",
    "targetOfAssay": "GPR139 (Homo sapiens, UniProt Q6DWJ6)",
    "EC50, nM": 39
  },
  {
    "molecule": "N[C@@H](Cc1c[nH]c2ccccc12)C(=O)O [L-tryptophan, reference compound]",
    "targetOfAssay": "GPR139 (Homo sapiens, UniProt Q6DWJ6)",
    "EC50, nM": 770000
  },
  {
    "molecule": "C=CCN(CC=C)C(=O)CN1C(=O)NC(C)(c2ccc3c(c2)OCCO3)C1=O (centres unmarked)",
    "targetOfAssay": "GPR139 (Homo sapiens, UniProt Q6DWJ6)",
    "EC50, nM": 39
  }
]

Query: Give a short answer stating reported EC50 for Cc1ccc(C(C)NC(=O)NCC(=O)NCC2CC2)cc1F (centres unmarked) .
Reply: 22

Query: Read off the recorded EC50 for COc1cc(OC)cc(C(=O)NN2C(=O)NC(C)(c3ccccc3)C2=O)c1 (centres unmarked)
Reply: 31

----------
Property: pEC50 ± S.E.M.; scope: individual compounds
Biological target: GPR139 (Homo sapiens, UniProt Q6DWJ6)
Construct: host or cells: CHO-k1
Sequence (Q6DWJ6 1-353): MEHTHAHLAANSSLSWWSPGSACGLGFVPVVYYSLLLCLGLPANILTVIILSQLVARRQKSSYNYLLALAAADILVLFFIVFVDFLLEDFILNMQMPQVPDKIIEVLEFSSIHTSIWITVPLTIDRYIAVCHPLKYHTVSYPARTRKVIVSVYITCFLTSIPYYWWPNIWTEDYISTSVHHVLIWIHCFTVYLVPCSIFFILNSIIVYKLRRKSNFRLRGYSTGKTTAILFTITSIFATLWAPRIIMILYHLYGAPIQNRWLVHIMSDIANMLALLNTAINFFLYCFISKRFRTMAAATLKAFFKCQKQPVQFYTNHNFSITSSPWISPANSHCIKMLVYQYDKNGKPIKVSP
Test: Fluo-4 calcium mobilization assay, agonist mode, concentration-response curves in CHO-GPR139 cells
Type: cell-based
Details: CHO-GPR139 cells
Form: value (number only, do not type unit).

Solved entries (count: 8):
[
  {
    "compound": "CC1(c2ccc3c(c2)OCCO3)NC(=O)N(CC(=O)N2CCc3ccccc3C2)C1=O (stereo not drawn)",
    "pEC50 ± S.E.M.": 6.54
  },
  {
    "compound": "CC1Cc2ccccc2N1C(=O)CN1C(=O)NC(C)(c2ccc3c(c2)OCCO3)C1=O (stereo not drawn)",
    "pEC50 ± S.E.M.": 6.05
  },
  {
    "compound": "C=CCN(CC=C)C(=O)CN1C(=O)NC(C)(c2ccc3c(c2)OCO3)C1=O (stereo not drawn)",
    "pEC50 ± S.E.M.": 6.41
  },
  {
    "compound": "C=CCN(CC=C)C(=O)CN1C(=O)NC(C)(c2cccc3ccccc23)C1=O (stereo not drawn)",
    "pEC50 ± S.E.M.": 6.36
  },
  {
    "compound": "COc1cccc(C(=O)CN2C(=O)NC(C)(c3ccc(Cl)cc3)C2=O)c1 (stereo not drawn)",
    "pEC50 ± S.E.M.": 6.56
  },
  {
    "compound": "CCc1cccc2c(C(=O)CN3C(=O)NC(C)(c4ccc5c(c4)OCCO5)C3=O)c[nH]c12 (stereo not drawn)",
    "pEC50 ± S.E.M.": 6.20
  },
  {
    "compound": "CC1(c2cccc3ccccc23)NC(=O)N(CC(=O)c2ccc(CCNS(C)(=O)=O)s2)C1=O (stereo not drawn)",
    "pEC50 ± S.E.M.": 6.38
  },
  {
    "compound": "CC1(c2ccc3c(c2)OCCO3)NC(=O)N(CC(=O)c2ccc3c(c2)OCO3)C1=O (stereo not drawn)",
    "pEC50 ± S.E.M.": 6.36
  }
]

Okay, next one:
Query: Please give measured pEC50 ± S.E.M. of the following entry: Cc1ccc(C(C)NC(=O)NCC(=O)NCC2CC2)cc1F (stereo not drawn)
Reply: 7.02
